Measured Metric: melting point (°C)
The reply should contain only the number, in °C.

Problem: I'd like to know its melting point. The molecule in question is c1ccc(-c2cc3nnc(-c4cnccn4)n3nc2OCc2nc[nH]n2)cc1 [Example 3]
Solution: 255

Problem: # iterate: Cn1ncnc1COc1nn2c(-c3cnccn3)nnc2cc1-c1ccccc1 [Example 2]
Solution: 264
